Data origin: PubChem BioAssay

# protocol: binders of probe aFSTL3 on microarray, primary screen, stem cell growth factor project, biochemical, small-molecule microarray, fluorescence 635/667 (AID 1064);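 note: measures binding of the biotinylated anti-FSTL3 antibody to printed compounds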
# measurement conditions: higher = more signal
The entries below are paired with their reported composite z-score.

Example compounds with recorded composite z-score:
- compound: "Cc1cc(C)c(-c2cc([C@H](C)ON=C[C@@H](C)[C@H](OCc3ccccc3)C(C)C)on2)c(C)c1"
  composite z-score: -0.355
- compound: "CON=C[C@@H](OC)[C@H](C)C=CCC(=O)OC"
  composite z-score: -0.447
- compound: "CC(C)CON=C1[C@H]2CCn3c(=O)n(C)c(=O)n3[C@H]2[C@H](O)[C@@H]2O[C@H]12"
  composite z-score: -0.553
- compound: "O=C(NN=C1C[C@@H](O)[C@@H](O)[C@@H]2[C@@H]3C(=O)N(Cc4ccccc4)C(=O)[C@@H]3CC[C@H]12)OCc1ccccc1"
  composite z-score: -0.286
- compound: "COC(=O)CC=C[C@@H](C)[C@@H](C=NOC(C)CN1CCCCc2nc(C)c(C)cc21)NS(=O)(=O)c1ccc(C)cc1 (stereo partly specified)"
  composite z-score: 0.061

Measured composite z-score of CC(=O)OC[C@H]1O[C@H](CCON=C(C)CCN2CCCc3nc(C)c(C)cc32)C=C[C@@H]1OC(C)=O : -0.293

* * *

Below, each entry is listed alongside its reported composite z-score.
# measured on: Carbonic anhydrase 2 (Homo sapiens)
# protocol: CAII small-molecule binders, profiling panel, biochemical, small-molecule microarray, Alexa647-labelled CAII (AID 1122)
# measurement conditions: CAII-A647 binding fluorescence, higher = more signal
I'd appreciate a reply containing only the number, no unit.

- compound: "C[C@H]1CC[C@H]2C(=O)OC(COc3ccc(C(C)(C)C)cc3)CN2[C@@H]1c1ccc(Br)cc1 (some centres not stated)"
  composite z-score: 0.267

Given the compound O=C1C[C@@H](O)[C@@H](O)[C@@H]2[C@@H]3C(=O)N(c4ccc(F)cc4F)C(=O)[C@@H]3CC[C@H]12 and test system Carbonic anhydrase 2 (Homo sapiens), the measured composite z-score is 0.104

Bench note, Carbonic anhydrase 2 (Homo sapiens): entry COC(=O)[C@H](C)NC(=O)CCC1CC(OC(=O)NCc2cccc3ccccc23)CC2(CCCC(COC(=O)NCCc3ccccc3OC)O2)O1 (some centres not stated) , its composite z-score = 0.548

Entry C[C@@H]1CC[C@H]2C(=O)O[C@@H](CN=[N+]=[N-])CN2[C@H]1c1ccc(Br)cc1 ; assay system Carbonic anhydrase 2 (Homo sapiens); composite z-score recorded at 0.236

Value (composite z-score, Carbonic anhydrase 2 (Homo sapiens)) for record CCOC(=O)CCN1C(=O)[C@H]2[C@H]3[C@H](O)[C@H](O)CC(=NNC(=O)OCc4ccc(OC)cc4)[C@H]3CC[C@H]2C1=O = -0.0767

The compound CO[C@H]1COC(=O)[C@H](C)COC(=O)[C@H](C)NC(=O)CC=C[C@H]1C on Carbonic anhydrase 2 (Homo sapiens): composite z-score was 0.0006

I looked up O=C1[C@H]2[C@H]3[C@H](O)[C@H](O)CC(=NOC[C@@H](O)COCc4ccco4)[C@@H]3CC[C@H]2C(=O)N1Cc1ccccc1 and its composite z-score for Carbonic anhydrase 2 (Homo sapiens) was 0.552

* * *

In this section, each of the molecules is paired with its reported composite z-score.
# protocol: binders of probe aHhip on microarray, primary screen, stem cell growth factor project, biochemical, small-molecule microarray, fluorescence 635/667 (AID 1087);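 note: score merges spot fluorescence at 667nm with spot signal to noise ratio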
# measurement conditions: higher = more signal
API note: the answer field is a bare number with no unit suffix.

See these solved cases before continuing.
- molecule: "O=C1C[C@H](c2ccccc2)[C@H](c2ccc(Br)cc2)O1"
  composite z-score: -0.0994
- molecule: "CC(C)=NOC(C)CN1CCCc2nc(C)c(C)cc21 (stereo not drawn)"
  composite z-score: -0.201
- molecule: "CCC1=NOC(CCC2CC(OC(=O)NCc3cccc4c3OCO4)CC3(CCCC(COC(=O)NCCc4ccc(Cl)cc4)O3)O2)C1 (stereo not drawn)"
  composite z-score: -0.0994
- molecule: "CCc1cc2c(nc1CC)CCN(CCC(C)=NOC(C)CN1CCCCc3nc(C)c(C)cc31)C2 (stereo not drawn)"
  composite z-score: -0.174
- molecule: "COC(=O)[C@@H]1CC[C@H](C)[C@@H](c2ccc(Br)cc2)N1"
  composite z-score: 0.842

# molecule COc1ccc(COC(=O)NN=C2C[C@@H](O)[C@@H](O)[C@@H]3[C@@H]4C(=O)N(C[C@@H]5CCCO5)C(=O)[C@@H]4CC[C@@H]23)cc1 ; its composite z-score = -0.117

For record O=C1C2=CC[C@H]3C(=O)N(C4CCCCC4)C(=O)[C@H]3[C@H]2[C@H](O)[C@@H]2O[C@H]12 the listed composite z-score is -0.164

The molecule CC(CCC(=O)OC[C@H]1O[C@H](C#Cc2ccccc2)C=C[C@@H]1Oc1ccc(C)cc1)=NO[C@@H](C)c1cc(-c2c(C)cc(C)cc2C)no1 showed composite z-score equal to 0.312

* * *

# measured on: Dihydroorotate dehydrogenase (quinone), mitochondrial (Plasmodium falciparum (isolate 3D7))
# protocol: PfDHODH enzyme inhibitors, primary screen, biochemical, C-terminal His tag, absorbance 600 nm (AID 1175);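 note: recombinant parasite enzyme with a five histidine tag at its C terminus; test concentration not given here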
# measurement conditions: DCIP absorbance 600 nm, higher = more signal, called active from +8 up or from −8 down
endpoint label: composite z-score
# output: bare number, no unit

In the examples that follow, each entry is paired with its recorded composite z-score.
- compound: "O=C1C[C@@H](O)[C@@H](O)[C@@H]2[C@@H]3C(=O)N(Cc4ccccc4)C(=O)[C@@H]3CC[C@H]12"
  composite z-score: 0.318
- compound: "CON=C(C)CCC(=O)OC[C@H]1O[C@H](C#Cc2ccccc2)C=C[C@@H]1Oc1ccc(C)cc1"
  composite z-score: 0.444

Per the records, this compound ( O=C1[C@H]2[C@H]3[C@H](O)[C@H](O)CC(=NO[C@@H]4O[C@H](CO)[C@@H](O)[C@H](O)[C@H]4O)[C@H]3CC[C@H]2C(=O)N1c1ccc(F)cc1F ) has composite z-score equal to -1.08

Data point: CC(C)=CCCC(C)=CCON=C1[C@H]2CCn3c(=O)n(-c4ccccc4)c(=O)n3[C@H]2[C@H](O)[C@@H]2O[C@H]12 ; composite z-score = -0.197

* * *

# protocol: HepG2 cell viability effects, profiling panel, calcein-AM fluorescence, 48 h, basal (AID 1164); note: test concentration not given here
# measurement conditions: higher = more signal
Class field: derived from z-score; ranges low = under -0.9, moderate = from -0.9 up to 0.06, high = 0.06 and over

- molecule: "CC(CCC(=O)OC[C@H]1O[C@H](C#Cc2ccccc2)C=C[C@@H]1Oc1ccc(C)cc1)=NOC(C)CN1CCCCc2nc(C)c(C)cc21 (some centres undefined)"
  category: "moderate"
- molecule: "C[C@H]1CC[C@H]2C(=O)O[C@H](CO)CN2[C@@H]1c1ccc(Br)cc1"
  category: "high"
- molecule: "CCOC(=O)[C@H](CC(C)C)NC(=O)CCC1CC(OC(=O)NCCc2ccc(F)cc2)CC2(CCCC(COC(=O)NCc3cccc(C(F)(F)F)c3)O2)O1 (some centres undefined)"
  category: "moderate"

Problem: Which class is correct for the following molecule? COc1ccc(COC(=O)NN=C2C[C@@H](O)[C@@H](O)[C@@H]3[C@@H]4C(=O)N([C@@H](C)c5ccccc5)C(=O)[C@@H]4CC[C@@H]23)cc1
Result: low

Problem: Form: Item = C#CCCCON=C1[C@H]2CCn3c(=O)n(Cc4cc5c(cc4Cl)OCO5)c(=O)n3[C@H]2[C@H](O)[C@@H]2O[C@H]12 ; Class = ?
Result: high

Problem: # bin lookup: classify CCN1C(=O)[C@H]2[C@H]3[C@H](O)[C@H](O)CC(=NO[C@@H]4O[C@H](CO)[C@@H](O)[C@H](O)[C@H]4O)[C@H]3CC[C@H]2C1=O by its z-score
Result: high

Problem: Hi there! Could you help me figure out the category for COC(=O)[C@@H]1CC[C@H](C)[C@@H](c2ccc(C)cc2)N1C(=O)c1ccc(C=NOC[C@@H](O)[C@H]2O[C@@H]3OC(C)(C)O[C@@H]3[C@H]2O)cc1 please?
Result: moderate

Problem: Textbook exercise: identify the category of the molecule given here, CC(CCN1CCCc2nc(C)c(C)cc21)=NO[C@H](C)c1cn([C@H](CO)Cc2ccccc2)nn1 , according to its measured value.
Result: moderate

Problem: Just checking, what class would you give COc1ccc(-c2cnnc(CCCn3ccnc3-c3ccccc3)n2)cc1 here?
Result: low

Problem: Kindly identify the class of COC(=O)[C@H](C)NC(=O)CCC1CC(OC(=O)NCc2ccc3c(c2)OCO3)CC2(CCCC(COC(=O)NCCCN3CCCC3=O)O2)O1 (some centres undefined) .
Result: low

Problem: Which of the defined bands does the recorded z-score of CC(C)=CCCC(C)=CCON=C1C[C@@H](O)[C@@H](O)[C@@H]2[C@@H]3C(=O)N([C@@H](C)c4ccccc4)C(=O)[C@@H]3CC[C@@H]12 sit within?
Result: moderate

Problem: Bin? CON=C(C)CCC(=O)OC[C@H]1O[C@H](C#Cc2ccccc2)C=C[C@@H]1Oc1ccc(C)cc1
Result: low

Problem: Any idea which band C[C@@H]1CC[C@H]2C(=O)OC(CN3C(=O)c4ccccc4C3=O)CN2[C@H]1c1ccc(Br)cc1 (some centres undefined) is in?
Result: high
